# target.system: integrin α4β7 on α4β7+ memory T helper cells (Homo sapiens, UniProt P13612+P26010)
# Construct: endogenous in cells
# Sequence (P13612 34-1032): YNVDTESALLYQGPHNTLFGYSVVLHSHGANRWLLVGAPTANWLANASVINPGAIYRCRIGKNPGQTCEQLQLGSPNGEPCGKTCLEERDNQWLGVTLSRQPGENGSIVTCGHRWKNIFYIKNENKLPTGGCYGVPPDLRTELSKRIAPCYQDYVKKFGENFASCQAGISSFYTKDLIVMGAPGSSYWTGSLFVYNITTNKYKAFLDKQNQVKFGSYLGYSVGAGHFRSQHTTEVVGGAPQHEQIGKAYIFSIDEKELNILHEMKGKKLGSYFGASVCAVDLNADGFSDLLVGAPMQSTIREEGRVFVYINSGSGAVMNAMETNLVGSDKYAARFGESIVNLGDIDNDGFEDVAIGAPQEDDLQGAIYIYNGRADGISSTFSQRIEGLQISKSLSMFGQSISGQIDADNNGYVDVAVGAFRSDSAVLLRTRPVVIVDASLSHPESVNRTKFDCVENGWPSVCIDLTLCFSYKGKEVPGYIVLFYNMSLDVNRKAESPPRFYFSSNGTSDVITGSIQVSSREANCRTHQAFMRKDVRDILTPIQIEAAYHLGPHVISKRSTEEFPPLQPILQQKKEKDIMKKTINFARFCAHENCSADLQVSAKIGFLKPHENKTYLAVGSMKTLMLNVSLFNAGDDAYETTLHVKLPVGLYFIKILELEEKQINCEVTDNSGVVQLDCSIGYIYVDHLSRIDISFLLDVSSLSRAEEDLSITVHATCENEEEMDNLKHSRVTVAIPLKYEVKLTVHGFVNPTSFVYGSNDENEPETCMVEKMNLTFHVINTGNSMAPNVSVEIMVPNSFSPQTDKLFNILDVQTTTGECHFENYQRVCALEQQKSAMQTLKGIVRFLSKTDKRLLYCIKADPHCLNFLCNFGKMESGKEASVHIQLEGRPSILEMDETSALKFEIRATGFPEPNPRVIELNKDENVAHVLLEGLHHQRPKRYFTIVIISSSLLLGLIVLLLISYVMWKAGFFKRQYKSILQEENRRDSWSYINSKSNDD
# Sequence (P26010 20-798): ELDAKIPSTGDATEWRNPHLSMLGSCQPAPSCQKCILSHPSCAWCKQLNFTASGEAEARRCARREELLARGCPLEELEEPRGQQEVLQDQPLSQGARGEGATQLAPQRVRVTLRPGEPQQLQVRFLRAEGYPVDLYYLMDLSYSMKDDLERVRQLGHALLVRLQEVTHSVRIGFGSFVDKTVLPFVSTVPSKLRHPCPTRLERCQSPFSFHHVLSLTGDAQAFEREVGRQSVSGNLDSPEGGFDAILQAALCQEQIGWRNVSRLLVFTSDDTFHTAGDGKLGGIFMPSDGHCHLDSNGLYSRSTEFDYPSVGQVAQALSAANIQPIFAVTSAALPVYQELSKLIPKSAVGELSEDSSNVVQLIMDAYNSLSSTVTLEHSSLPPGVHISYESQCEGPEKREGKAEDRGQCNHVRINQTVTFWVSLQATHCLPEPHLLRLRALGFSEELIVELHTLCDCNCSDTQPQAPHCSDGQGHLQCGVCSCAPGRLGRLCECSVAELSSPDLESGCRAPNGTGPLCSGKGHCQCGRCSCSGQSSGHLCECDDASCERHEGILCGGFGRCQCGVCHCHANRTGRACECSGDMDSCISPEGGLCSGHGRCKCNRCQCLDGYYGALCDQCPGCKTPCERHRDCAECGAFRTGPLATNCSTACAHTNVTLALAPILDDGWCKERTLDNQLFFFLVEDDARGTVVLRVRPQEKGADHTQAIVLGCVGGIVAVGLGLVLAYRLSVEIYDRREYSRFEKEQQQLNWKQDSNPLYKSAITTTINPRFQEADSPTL
# assay.text: MAdCAM-1 competition / receptor occupancy assay in human whole blood, α4β7-positive Th memory cells
# Assay type: cell-based
# test.context: human whole blood, inhibition of MAdCAM-1 binding to α4β7-positive Th memory cells, FACS; read-out: MADCAM FACS α4β7 Th mem
measure.name: IC50

INSERT INTO measurements (compound, reported_result) VALUES
  ('CC(C)C[C@@H]1NC(=O)C[C@H](CCCCN)N(C)C(=O)[C@H](CCCCNC(=O)c2ccccc2-c2ccccc2C(=O)NCCCC[C@@H]2NC(=O)[C@@H]3CCCN3[C@H](C(=O)NC(C)(C)C)[C@H](C)NC(=O)[C@H]([C@@H](C)O)NC(=O)[C@H](CC(=O)O)NC(=O)[C@H](CC(C)C)NC(=O)C[C@H](CCCCN)N(C)C2=O)NC(=O)[C@@H]2CCCN2[C@H](C(=O)NC(C)(C)C)[C@H](C)NC(=O)[C@H]([C@@H](C)O)NC(=O)[C@H](CC(=O)O)NC1=O [Compound 535]', '77 nM');

Data origin, for the record: patent US11713338B2
